assay system: UniProt P48736
test details: PI3K-gamma fluorescence polarization assay
assay conditions: read-out: IC50 PI3Kγ; listed as 533
observation type: pIC50
Scale explanation: pIC50 corresponds to minus log10 of a concentration expressed in moles per litre.

Ask: For UniProt P48736, provide pIC50 of "Cc1ccc(-c2nc(-c3ccc(NC(=O)Nc4ccc(C(=O)N5CCN(C)CC5)cc4)cc3)nc(N3CCOCC3)n2)cc1" please.
Result: 7.01

###

assay system: PI3K-γ (Homo sapiens, UniProt P48736)
Sequence (P48736 whole entry, species assumed): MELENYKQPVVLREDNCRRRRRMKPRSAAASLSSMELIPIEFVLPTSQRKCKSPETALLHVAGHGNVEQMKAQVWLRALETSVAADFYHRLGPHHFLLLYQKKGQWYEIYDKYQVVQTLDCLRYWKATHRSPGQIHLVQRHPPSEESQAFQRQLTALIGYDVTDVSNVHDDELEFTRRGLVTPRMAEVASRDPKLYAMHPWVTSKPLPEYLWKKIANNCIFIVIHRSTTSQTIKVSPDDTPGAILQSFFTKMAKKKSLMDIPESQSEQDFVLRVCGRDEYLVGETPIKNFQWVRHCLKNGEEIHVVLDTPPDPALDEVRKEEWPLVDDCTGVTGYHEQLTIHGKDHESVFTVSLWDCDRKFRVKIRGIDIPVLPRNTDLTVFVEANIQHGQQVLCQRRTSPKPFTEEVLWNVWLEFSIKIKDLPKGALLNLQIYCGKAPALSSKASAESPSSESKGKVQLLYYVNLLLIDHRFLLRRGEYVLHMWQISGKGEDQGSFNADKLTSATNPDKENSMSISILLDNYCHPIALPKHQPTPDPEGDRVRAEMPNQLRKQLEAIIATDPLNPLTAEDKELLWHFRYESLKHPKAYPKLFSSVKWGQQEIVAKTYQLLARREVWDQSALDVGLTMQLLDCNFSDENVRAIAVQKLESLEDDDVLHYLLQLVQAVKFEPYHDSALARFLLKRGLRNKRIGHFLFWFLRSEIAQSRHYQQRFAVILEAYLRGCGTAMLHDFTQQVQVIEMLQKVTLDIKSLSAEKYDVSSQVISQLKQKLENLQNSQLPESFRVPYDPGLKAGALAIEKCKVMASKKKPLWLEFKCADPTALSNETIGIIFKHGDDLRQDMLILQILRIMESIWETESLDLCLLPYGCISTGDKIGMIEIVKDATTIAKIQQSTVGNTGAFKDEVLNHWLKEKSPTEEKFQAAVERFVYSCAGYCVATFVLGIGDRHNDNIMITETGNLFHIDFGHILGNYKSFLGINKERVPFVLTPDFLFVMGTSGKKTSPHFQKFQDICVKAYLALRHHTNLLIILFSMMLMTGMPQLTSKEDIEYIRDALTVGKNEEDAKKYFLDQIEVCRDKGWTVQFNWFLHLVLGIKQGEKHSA
test details: PI3K-gamma fluorescence polarization assay
assay conditions: read-out: IC50 PI3Kγ
pIC50: −log10 of the molar value.
Please enter true (1) where pIC50 is greater than or equal to 7, and false (0) where it is lower.

Ask: Tell me whether pIC50 is at least 7 here: "O=C(Nc1ccc(F)cc1)Nc1ccc(-c2nc(N3CCOCC3)nc(N3CCOCC3)n2)cc1"
Result: true (1)

Ask: Also, "CC(C)Nc1nc(-c2ccc(NC(=O)Nc3ccc(C(=O)NN4CCCC4)cc3)cc2)nc(N2CC3CCC(C2)O3)n1" please.
Result: false (0)

Ask: Would you mind doing "CCCCN1CCN(C(=O)c2ccc(NC(=O)Nc3ccc(-c4nc(N5CCOCC5)nc(N5CCCN(C(C)C)CC5)n4)cc3)cc2)CC1" as well?
Result: false (0)

Ask: # repeat for "CN(C)CC(=O)Nc1ccc(NC(=O)Nc2ccc(-c3nc(N4C5CCC4COC5)nc(N4C5CCC4COC5)n3)cc2)cc1"
Result: false (0)

Source listed as patent US20090304692A1.
